- assayed target: UniProtKB P07333
- run description: Peptide (non-phosphorylated) assay, fluorescence polarization competition immunoassay
- Assay type: biochemical
- cond: 0.7 nM CSF-1R, 308 μM SYEGNSYTFIDPTQ peptide, 1 mM ATP, 80 min; mean of at least three determinations; read-out: c-fms Peptide IC50
pIC50: −log10 of the molar value.
property label: pIC50

CONC(=O)c1cn(-c2ccc3c(c2)CCC3)c2nc(Nc3ccc(CCN4CC(O)C4)cc3)ncc2c1=O : 9.28

a. NC(=O)c1cn(-c2ccc3c(c2)CCC3)c2nc(Nc3cccc(C(=O)N4CCOCC4)c3)ncc2c1=O
b. CCc1ccc(-n2cc(C(=O)NOC)c(=O)c3cnc(Nc4ccc(OCCOC)cc4)nc32)cc1
Thinking about recorded pIC50 values, which is higher, a or b ? Your answer should be the label of the entry you select.
b

* * *

- assayed target: CSF-1R (Homo sapiens, UniProt P07333)
- Sequence (P07333 20-972): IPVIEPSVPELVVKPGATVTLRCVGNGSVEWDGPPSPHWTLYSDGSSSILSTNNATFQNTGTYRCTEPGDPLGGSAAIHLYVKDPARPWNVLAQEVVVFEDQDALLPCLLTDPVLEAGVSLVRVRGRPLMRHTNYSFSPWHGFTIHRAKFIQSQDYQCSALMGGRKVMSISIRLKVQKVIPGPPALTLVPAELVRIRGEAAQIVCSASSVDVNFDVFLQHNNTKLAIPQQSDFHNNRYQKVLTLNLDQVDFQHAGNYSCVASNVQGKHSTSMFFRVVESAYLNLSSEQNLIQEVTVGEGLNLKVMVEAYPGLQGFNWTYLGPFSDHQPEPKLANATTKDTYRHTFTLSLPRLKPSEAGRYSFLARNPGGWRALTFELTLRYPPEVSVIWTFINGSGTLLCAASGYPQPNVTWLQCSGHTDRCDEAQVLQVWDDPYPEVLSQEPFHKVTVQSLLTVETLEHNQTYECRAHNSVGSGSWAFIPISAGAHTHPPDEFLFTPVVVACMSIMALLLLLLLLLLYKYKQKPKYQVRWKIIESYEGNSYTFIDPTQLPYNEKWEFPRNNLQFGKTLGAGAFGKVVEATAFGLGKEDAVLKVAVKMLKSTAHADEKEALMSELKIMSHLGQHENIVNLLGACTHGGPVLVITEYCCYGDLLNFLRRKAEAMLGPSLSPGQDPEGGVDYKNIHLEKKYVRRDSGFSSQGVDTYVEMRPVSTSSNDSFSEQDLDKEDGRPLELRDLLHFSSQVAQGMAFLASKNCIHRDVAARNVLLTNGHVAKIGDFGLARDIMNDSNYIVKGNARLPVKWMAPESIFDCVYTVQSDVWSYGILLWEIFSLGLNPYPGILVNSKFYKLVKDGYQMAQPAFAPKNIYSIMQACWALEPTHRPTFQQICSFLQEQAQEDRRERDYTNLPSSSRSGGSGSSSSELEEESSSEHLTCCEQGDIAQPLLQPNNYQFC
- run description: Peptide (non-phosphorylated) assay, fluorescence polarization competition immunoassay
- Type: biochemical
- cond: 0.7 nM CSF-1R, 308 μM SYEGNSYTFIDPTQ peptide, 1 mM ATP, 80 min; mean of at least three determinations; read-out: c-fms Peptide IC50
property label: IC50 (nM)

Below are worked cases with known answers.
CONC(=O)c1cn(-c2ccc3c(c2)CCC3)c2nc(Nc3ccc(CCN4CC[C@H](O)C4)cc3)ncc2c1=O : 0.67
CONC(=O)c1cn(-c2ccc3c(c2)CCC3)c2nc(Nc3cccc(S(=O)(=O)CCN(C)C)c3)ncc2c1=O : 1.1

I. CCc1ccc(-n2cc(C(=O)NOC)c(=O)c3cnc(Nc4ccc(CC(=O)O)cc4)nc32)cc1
II. CCc1ccc(-n2cc(C(=O)NOC)c(=O)c3cnc(Nc4ccc(-c5ccc(N(C)C)cc5)cc4)nc32)cc1
When their IC50 values are compared, which is larger, I or II ? Which one? Tell me its label.
II

* * *

- assayed target: CSF-1R (Homo sapiens, UniProt P07333)
- run description: Peptide (non-phosphorylated) assay, fluorescence polarization competition immunoassay
- Type: biochemical
- cond: 0.7 nM CSF-1R, 308 μM SYEGNSYTFIDPTQ peptide, 1 mM ATP, 80 min; mean of at least three determinations; read-out: c-fms Peptide IC50
- Experimental: The kinase reaction was initiated by adding 1 μL of 10 mM ATP in assay buffer. […] The plates were covered and incubated at room temperature for 80 min. […] The plates were covered, incubated for 30 min at room temperature, and the fluorescence polarization was read on an Analyst plate reader (Molecular Devices).
property label: IC50 (nM)

CN1CCN(c2ccc(Nc3ncc4c(=O)c(C(N)=O)cn(Cc5ccccc5)c4n3)cc2)CC1 [Cpd 114] : 9.6

I. CONC(=O)c1cn(-c2ccc3c(c2)CCC3)c2nc(Nc3cccc(C(=O)NCCN(C)C)c3)ncc2c1=O [Cpd 199]
II. O=C(NCCO)c1cn(-c2ccc3c(c2)CCC3)c2nc(Nc3cccc(N4CCNCC4)c3)ncc2c1=O [Cpd 66]
III. CONC(=O)c1cn(-c2ccc3c(c2)CCC3)c2nc(Nc3ccc(CCN4CCCC(F)C4)cc3)ncc2c1=O (centres unmarked) [Cpd 256]
IV. NC(=O)c1cn(-c2ccc3c(c2)CCC3)c2nc(Nc3cccc(N4CCCC4)c3)ncc2c1=O [Cpd 125]
Arrange these compounds by their IC50, starting with the largest number. Provide the ranking by listing each label in its place in the requested order.
IV, II, I, III

P. CCc1ccc(-n2cc(C(=O)NOC)c(=O)c3cnc(Nc4ccc5[nH]ccc5c4)nc32)cc1 [Cpd 285]
Q. CCONC(=O)c1cn(C2CCCC2)c2nc(Nc3ccc(CCN4CCN(C)CC4)cc3)ncc2c1=O [Cpd 49]
Of P and Q , which one carries the higher reported IC50? // output: label of the selected item
Q
(Q: 1.7 nM, P: 0.8 nM)
